# Test system: OVCAR-4 ovarian
# PROTOCOL DETAILS: NCI tumour cell line growth inhibition, 48 h
Field: TGI. Provide a value for each of the molecules that follow.

Here is how some molecules turned out for TGI.
// field: TGI; key: `Cn1c2ccccc2c2c(=O)n(CCCC(=O)OC(=NC3CCCCC3)NC3CCCCC3)c3c(-c4ccccc4)nnn3c21` ; value = > 100 µM

// field: TGI; key: `C[Si](C)(C)C(Sc1ccccc1)(Sc1ccccc1)Sc1ccccc1` ; value = > 100 µM

// field: TGI; key: `COc1ccc(N(C)c2nc(Cl)nc3cnn(C)c23)cc1` ; value = > 100 µM

// field: TGI; key: COC1/C=C/C(C)C(C(C)C(OC)C(C)CCC(=O)C(C)C(CC(=O)O)OC)OC(=O)/C=C/C=C(\C)CC(OC)CC2=CC(=O)O[C@H](C2)C(C)C(OC)CC(OC)/C=C/C(C)C(OC)C1 (stereo partly specified) ; value = > 4.35 µM

// field: TGI; key: CCOP1(=O)C=C(C)C(=C(Cl)Cl)C(C)=C1 (stereo unspecified) ; value = 29.1 µM

Please go through the list and note TGI for each molecule.
1. CCN(CC)CCNc1ccc2nc(C)n3c4ccc(O)cc4c(=O)c1c23
2. COC(=O)/C(C#N)=C(\N)c1c(C)c2ccccc2oc1=N
3. C=CCN(N=O)C(=O)NCCCCC(NC(C)=O)C(=O)NCc1ccccc1 (stereo unspecified)
4. CCOC1CC2OC(=O)C1C=C2C(=O)OC (stereo unspecified)
5. CC(=O)/C(C=Nc1c(C)n(C)n(C)c1=O)=C(/O)c1ccccc1
6. CCOC(=O)C(=O)NC12CC3CC(CC(C3)C1)C2

Output:
3.87 µM
> 100 µM
> 100 µM
57.4 µM
> 50 µM
> 100 µM

* * *

# Test system: HT29 colon
# PROTOCOL DETAILS: NCI tumour cell line growth inhibition, 48 h
OBSERVATION TYPE: GI50

Here is how some molecules turned out for GI50.
// field: GI50; key: `CCC[CH2][Pb]([Cl])([CH2]CCC)[CH2]CCC` ; value = 0.0252 µM

// field: GI50; key: `COc1ccc(OC)c(/C=C/c2nc(SCc3ccccc3)n(-c3ccc(Cl)cc3)n2)c1` ; value = 3.93 µM

// field: GI50; key: `CCCN1CCC(c2ccc(Nc3nc(Nc4cc(F)ccc4C(N)=O)c4cc[nH]c4n3)c(OC)c2)CC1` ; value = 0.0124 µM

// field: GI50; key: `COc1cc(/C=C2\C[C@H]3[C@@H]4CC=C5C[C@@H](OC(C)=O)CC[C@]5(C)[C@H]4CC[C@]3(C)[C@H]2OC(C)=O)ccc1OCCN1CCCC1` ; value = 11.7 µM

// field: GI50; key: `C1C[OH+]CC[OH+]CCNCC[OH+]CC[OH+]CCN1.Cl.[Cl-].[Pt+4]` ; value = > 100 µM

// field: GI50; key: `COc1cc2c(cc1C)NC(=O)/C2=C\c1c[nH]c2ccccc12` ; value = 5.27 µM

Please go through the list and note GI50 for each molecule.
1. CC1(C)N=C(N)N=C(N)N1c1cccc(Br)c1
2. C#Cc1cccc(NC(=O)c2ccc(NC(=O)CCl)cc2)c1
3. CCN(Cc1ccc(F)cc1)c1ccc(CO)c(OC)c1

Output:
["0.255 µM", "16 µM", "24 µM"]

// field: GI50; key: `CN1CCN(Cc2ccc(NC(=O)c3cncc(C#Cc4cnc(N)c5cnccc45)c3)cc2C(F)(F)F)CC1` ; value = 0.115 µM

* * *

# Test system: SK-MEL-2 melanoma
# PROTOCOL DETAILS: NCI tumour cell line growth inhibition, 48 h
Field: TGI. Provide a value for each of the compounds that follow.

Here is how some compounds turned out for TGI.
// field: TGI; key: Cc1ccc(N2C(N)=C(C#N)C(C#N)(C#N)C2c2ccccc2)cc1 (stereo unspecified) ; value = 38.2 µM

// field: TGI; key: `NC(=O)C(=CNC(=S)Nc1cccc(C(F)(F)F)c1)C(N)=O` ; value = > 100 µM

// field: TGI; key: `O=C1CCCc2ccc3c(c21)CC1(Cc2ccccc2C1)C3` ; value = > 100 µM

// field: TGI; key: CCOC(=O)C(Cc1ccc(N(CCCl)CCCl)cc1)NC(=O)CCCN1C(=O)CN=C(c2ccccc2)c2cc(Cl)ccc21 (stereo unspecified) ; value = 29.9 µM

// field: TGI; key: `COc1ccc(/C=C/C(=O)c2ccc(OC(=O)/C=C/c3ccccc3)cc2)cc1` ; value = > 100 µM

Please go through the list and note TGI for each compound.
1. CC1=CCC2CC1NC(=O)CCOCCC(=O)NC2(C)C (stereo unspecified)
2. CCCN(CCC)C1=Nc2ccccc2-n2cnnc2C1
3. COC[C@H](C)N=CN1CCc2ccccc2C1(Cc1ccccc1)Cc1ccccc1

Output:
1. > 100 µM
2. > 100 µM
3. 23.6 µM

Please go through the list and note TGI for each compound.
1. O=c1c([OH2+])c(-c2ccc(O)cc2[O-])oc2cc(O)cc([O-])c12.O=c1c([OH2+])c(-c2ccc(O)cc2[O-])oc2cc(O)cc([O-])c12.[Ti+4]
2. c1ccc(N/N=C2\NN=C(c3ccccc3)CS2)cc1

Output:
> 100 µM
44 µM

// field: TGI; key: `Fc1ccc(Nc2nc3ccccc3c3occc23)cc1` ; value = 27.6 µM

* * *

# Tested on: SF-539 CNS
# PROTOCOL DETAILS: NCI tumour cell line growth inhibition, 48 h
OBSERVATION TYPE: TGI

Here is how some compounds turned out for TGI.
// field: TGI; key: `O=C(O)Cc1cccc2c(=O)c3cccc([N+](=O)[O-])c3oc12` ; value = > 100 µM

// field: TGI; key: `[O-]c1c2c(nn1-c1ccc(Cl)cc1)c1ccccc1c[n+]2Cc1ccccc1` ; value = > 100 µM

// field: TGI; key: CC1=C2C3OC(=O)C(C)C3CCC2(C)C=CC1=Nc1ccccc1 (stereo unspecified) ; value = > 100 µM

// field: TGI; key: `COC[C@H](C)N=CN1CCc2ccccc2C1(Cc1ccccc1)Cc1ccccc1` ; value = 33.6 µM

// field: TGI; key: `c1ccc2c(NCCCCCCNc3cccc4ccccc34)cccc2c1` ; value = > 100 µM

Please go through the list and note TGI for each compound.
1. COc1cc2ccc1OCc1cccc(n1)COc1ccc(cc1OC)C=NCCNCCN=C2
2. Cn1cnc([N+](=O)[O-])c1Sc1nccc(=O)[nH]1
3. C1CN2CCNCCN(CCN1)CC2
4. CCOC(=O)C(OP(=O)(OCC)OCC)C(F)(F)F (stereo unspecified)
5. CN(C)CCNC(=O)NC[C@H]1CC[C@@H]2[C@H](O1)c1cc(C(F)(F)F)ccc1N[C@H]2c1ccccc1

Output:
> 100 µM
> 100 µM
> 100 µM
> 100 µM
8.31 µM

// field: TGI; key: `CCOC(=O)c1cccnc1C(OC(C)=O)OC(C)=O` ; value = > 100 µM

* * *

# System: HOP-62 NSCLC
# PROTOCOL DETAILS: NCI tumour cell line growth inhibition, 48 h
Field: GI50. Provide a value for each of the compounds that follow.

For `COC(=O)[C@]12CC[C@@H](C)[C@H](C)[C@@H]1C1=CC[C@@H]3[C@@]4(C)C(C=O)=C[C@@](C)(COC(=O)/C=C/c5ccccc5)[C@@H]4[C@H](O)C[C@@]3(C)[C@]1(C)CC2` on HOP-62 NSCLC, measured GI50 was 9.4 µM

For `Nc1ncnc2c1ccn2[C@@H]1O[C@H]([C@H](O)c2ccc(Cl)c(F)c2)[C@@H](O)[C@H]1O` on HOP-62 NSCLC, measured GI50 was > 100 µM

For `C/C(=N/N=C(N)N)c1ccc(NC(=O)Nc2ccc(/C(C)=N/N=C(N)N)cc2)cc1` on HOP-62 NSCLC, measured GI50 was 21.8 µM

Please go through the list and note GI50 for each compound.
1. CCCCCCCC(=O)[O][Hg][CH2]C1COC([CH2][Hg][O]C(=O)CCCCCCC)CO1 (centres undefined)
2. CN1CCN(Cc2cc(NC(=O)c3cccc(C#Cc4cccc5[nH]nc(N)c45)c3)cc(C(F)(F)F)c2)CC1
3. CN(C)c1ccc(N=C2C=CC(=O)c3ccccc32)cc1
4. [CH3][Sn]([CH3])([CH3])[O][N+](=O)[O-]
5. CSc1ccc(C(=O)/C=C/c2ccccc2Cl)cc1
6. COCCn1cc(-c2csc(-c3c[nH]c4ccc(Br)cc34)n2)c2cccnc21

Output:
17.2 µM
1.55 µM
2.19 µM
6.41 µM
17.4 µM
7.98 µM

From: PubChem BioAssay (NCI)
